Numbers sourced from paper PMC8707145.

# experimental_details: Determination of hemolytic activity
# Type: cell-based
# condition_description: human erythrocytes, released hemoglobin, read-out: level of hemolysis
Documented hemolysis at 10 µM across a set of compounds

compound | hemolysis at 10 µM
CCCCCCCCC1NC(C(=O)NCCC(C)(C)C)Cc2c1[nH]c1ccccc21 (stereo not drawn) | < 5%
O=C(NCCCN1CCOCC1)C1Cc2c([nH]c3ccccc23)C(c2ccc(Cl)cc2)N1 (stereo not drawn) | < 5%
CC1NC(C(=O)N2CCCCC2)Cc2c1[nH]c1ccccc21 (stereo not drawn) | < 5%

* * *

# System: P. falciparum W2 (CQ-resistant) strain
# experimental_details: P. falciparum drug susceptibility assay (pLDH), W2 strain
# Type: cell-based, Plasmodium falciparum
# condition_description: Plasmodium falciparum, W2, 72 h, read-out: P. falciparum IC50 W2
# Method: Plasmodium falciparum cultures were established according to the method of Trager and Jensen, with slight modifications. […] Parasite growth was determined spectrophotometrically (OD650) by measuring the activity of parasite lactate dehydrogenase (pLDH), according to a modified version of the method of Makler, in both control and drug-treated cultures.
pIC50: −log10 of the molar value.
property_label: pIC50

compound | val
CCN(CC)CCCC(C)Nc1ccnc2cc(Cl)ccc12 (stereo not shown) [CQ, chloroquine, reference compound] | 6.57
